Measured Euclidean distance accompanies every entry in the list below.
# Test system: DU145
# assayProcedure: Euclidean distance of Cell Painting phenotypic profile (signed KS, 77 features) to DMSO centroid (dimensionless distance); 5 or 10 uM (library dependent); higher = stronger phenotypic change vs DMSO (phenoactivity)
# conditions: 48 h
Structures can show the parent of a compound that is named as a salt.
readoutKind: Euclidean distance

{"molecule": "CN(C)CCN(Cc1ccc(Cl)cc1)c1ccccn1 [Chloropyramine hydrochloride]", "readoutKind": "Euclidean distance", "result": 1.39}
{"molecule": "CCN[C@H]1CN(CCCOC)S(=O)(=O)c2sc(S(N)(=O)=O)cc21 [Brinzolamide]", "readoutKind": "Euclidean distance", "result": 1.06}
{"molecule": "CC(C)N(CCCCOCC(=O)NS(C)(=O)=O)c1cnc(-c2ccccc2)c(-c2ccccc2)n1 [Selexipag]", "readoutKind": "Euclidean distance", "result": 0.729}
{"molecule": "COc1cc(Nc2ncc(F)c(Nc3ccc4c(n3)N(COP(=O)(O)O)C(=O)C(C)(C)O4)n2)cc(OC)c1OC [R788 (Fostamatinib) Disodium]", "readoutKind": "Euclidean distance", "result": 2.15}
{"molecule": "O=C(O)c1ccccn1 [Picolinic acid (PCL 016)]", "readoutKind": "Euclidean distance", "result": 2.15}
{"molecule": "O=C(O)[C@H]1O[C@@H](Oc2cc3oc(-c4ccccc4)cc(=O)c3c(O)c2O)[C@H](O)[C@@H](O)[C@@H]1O [Baicalin]", "readoutKind": "Euclidean distance", "result": 1.25}
{"molecule": "C/C=C\\c1ccc(OC)cc1 [cis-Anethole]", "readoutKind": "Euclidean distance", "result": 0.864}
{"molecule": "O=C1C(N(CO)C(=O)NCO)N(CO)C(=O)N1CO (stereo not drawn) [Diazolidinyl urea]", "readoutKind": "Euclidean distance", "result": 1.01}

---

# Tested on: FB
# assayProcedure: Euclidean distance of Cell Painting phenotypic profile (signed KS, 77 features) to DMSO centroid (dimensionless distance); 5 or 10 uM (library dependent); higher = stronger phenotypic change vs DMSO (phenoactivity)
# conditions: 48 h
Where a name gives a salt, the structure may show the parent alone.
Measured Euclidean distance accompanies every entry in the list below.
readoutKind: Euclidean distance

{"compound": "N=C(N)c1ccc(N=NNc2ccc(C(=N)N)cc2)cc1 [Diminazene Aceturate]", "result": 0.72}
{"compound": "O=C(O)CNC(=O)c1ncc(-c2cccc(Cl)c2)cc1O", "result": 1.67}
{"compound": "O=C(NOCC(O)CO)c1cc(Br)c(F)c(F)c1Nc1ccc(I)cc1F (stereo not drawn)", "result": 2.89}
{"compound": "CN[C@H]1C(=O)N[C@@H]2Cc3ccc(cc3)Oc3cc4cc(c3O[C@@H]3O[C@H](C(=O)O)[C@@H](O)[C@H](O)[C@H]3NC(=O)CCCCCCCCC(C)C)Oc3ccc(cc3Cl)[C@@H](O)[C@@H]3NC(=O)[C@H](NC(=O)[C@@H]4NC(=O)[C@@H](NC2=O)c2cc(cc(O)c2Cl)Oc2cc1ccc2O)c1ccc(O)c(c1)-c1c(O[C@H]2O[C@H](CO)[C@@H](O)[C@H](O)[C@@H]2O)cc(O)cc1[C@@H](C(=O)NCCCN(C)C)NC3=O", "result": 0.48}
{"compound": "Brc1c(NC2=NCCN2)ccc2nccnc12 [Brimonidine Tartrate]", "result": 0.739}
{"compound": "CC[C@H](C)[C@H](N)C1=N[C@H](C(=O)N[C@@H](CC(C)C)C(=O)N[C@H](CCC(=O)[O-])C(=O)N[C@H](C(=O)N[C@H]2CCCCNC(=O)[C@H](CC(N)=O)NC(=O)[C@@H](CC(=O)[O-])NC(=O)[C@H](Cc3cnc[nH]3)NC(=O)[C@@H](Cc3ccccc3)NC(=O)[C@H]([C@@H](C)CC)NC(=O)[C@@H](CCCN)NC2=O)[C@@H](C)CC)CS1.[Zn+2]", "result": 0.932}
{"compound": "Nc1nc(F)nc2c1ncn2[C@@H]1O[C@H](COP(=O)(O)O)[C@@H](O)[C@@H]1O [Fludarabine Phosphate]", "result": 3.2}
{"compound": "COC(=O)c1ccc(O)cc1 [Methyl 4-hydroxybenzoate]", "result": 0.862}
{"compound": "COc1cc(N)c(Cl)cc1C(=O)NC1CCN(CCCOc2ccc(F)cc2)CC1OC (stereo not drawn) [Cisapride hydrate]", "result": 1.23}
{"compound": "Cc1ccc([N+](=O)[O-])cc1S(=O)(=O)N(C)/N=C/c1cnc2ccc(Br)cn12", "result": 2.69}
{"compound": "C[n+]1c2ccccc2nc2ccccc21 [Phenazine methosulfate]", "result": 4.99}
{"compound": "COC(=O)C1=C(C)NC(C)=C(C(=O)OC2CCCN(Cc3ccccc3)C2)C1c1cccc([N+](=O)[O-])c1 (stereo not drawn) [Benidipine HCl]", "result": 0.926}
{"compound": "O=C(NC1CCN(CCCCC2(C(=O)NCC(F)(F)F)c3ccccc3-c3ccccc32)CC1)c1ccccc1-c1ccc(C(F)(F)F)cc1 [Lomitapide Mesylate]", "result": 5.88}

---

# System: FB
# assayProcedure: Euclidean distance of Cell Painting phenotypic profile (signed KS, 77 features) to DMSO centroid (dimensionless distance); 5 or 10 uM (library dependent); higher = stronger phenotypic change vs DMSO (phenoactivity)
# conditions: 48 h

{"compound": "CC(=O)OCC(=O)[C@H]1CC[C@H]2[C@@H]3CCC4=CC(=O)CC[C@]4(C)[C@H]3CC[C@]12C [Deoxycorticosterone acetate]", "Euclidean distance": 1.02}
{"compound": "O=C(O[C@H]1CN2CCC1CC2)N1CCc2ccccc2[C@@H]1c1ccccc1 [Solifenacin succinate]", "Euclidean distance": 2.68}
{"compound": "CC(S)C(=O)NCC(=O)O (centres undefined)", "Euclidean distance": 0.869}
{"compound": "NS(=O)(=O)c1cc2c(cc1Cl)NC(C1CC3C=CC1C3)NS2(=O)=O (centres undefined) [Cyclothiazide]", "Euclidean distance": 1.07}

---

Measured Euclidean distance accompanies every entry in the list below.
# System: DU145
# assayProcedure: Euclidean distance of Cell Painting phenotypic profile (signed KS, 77 features) to DMSO centroid (dimensionless distance); 5 or 10 uM (library dependent); higher = stronger phenotypic change vs DMSO (phenoactivity)
# conditions: 48 h
readoutKind: Euclidean distance

{"compound": "COc1ccc(-c2cc3c(C)nc(N)nc3n([C@H]3CC[C@H](OCCO)CC3)c2=O)cn1", "result": 2.31}
{"compound": "CC(C)OC(=O)[C@H](C)N[P@](=O)(OC[C@H]1O[C@@H](n2ccc(=O)[nH]c2=O)[C@](C)(F)[C@@H]1O)Oc1ccccc1", "result": 1.07}
{"compound": "CC1CCc2c(N3CCC(O)CC3)c(F)cc3c(=O)c(C(=O)O)cn1c23 (stereo not drawn)", "result": 0.896}
{"compound": "CCC[C@@H]1C[C@@H](C(=O)N[C@@H]([C@H]2O[C@H](SC)[C@H](O)[C@@H](O)[C@H]2O)[C@H](C)Cl)N(C)C1 [Clindamycin]", "result": 0.629}
{"compound": "Cc1cn([C@@H]2C[C@@H](O)[C@H](CO)O2)c(=O)[nH]c1=O", "result": 0.651}
{"compound": "C[C@]1(O)C[C@@H](c2nc(-c3ccc4ccc(-c5ccccc5)nc4c3)c3c(N)nccn32)C1", "result": 0.877}
{"compound": "CC(=O)OCC(CCn1cnc2cnc(N)nc21)COC(C)=O", "result": 0.892}
{"compound": "CCCS(=O)(=O)Nc1ccc(F)c(C(=O)c2c[nH]c3ncc(Cl)cc23)c1F", "result": 0.951}

---

# System: HEPG2
# assayProcedure: Euclidean distance of Cell Painting phenotypic profile (signed KS, 77 features) to DMSO centroid (dimensionless distance); 5 or 10 uM (library dependent); higher = stronger phenotypic change vs DMSO (phenoactivity)
# conditions: 48 h
Where a name gives a salt, the structure may show the parent alone.
Note to self: values exactly at 1 are Condition met. So Euclidean distance at or above 1 is Condition met, below is Condition not met.

{"compound": "NC12CC3CC(CC(C3)C1)C2 [Amantadine HCl]", "experimentalTarget": "HEPG2", "className": "Condition not met"}
{"compound": "O=S(=O)(O)CCCCOC[C@H]1O[C@@H]2O[C@H]3[C@H](O)[C@@H](O)[C@@H](O[C@H]4[C@H](O)[C@@H](O)[C@@H](O[C@H]5[C@H](O)[C@@H](O)[C@@H](O[C@H]6[C@H](O)[C@@H](O)[C@@H](O[C@H]7[C@H](O)[C@@H](O)[C@@H](O[C@H]8[C@H](O)[C@@H](O)[C@@H](O[C@H]1[C@H](O)[C@H]2O)O[C@@H]8CO)O[C@@H]7COCCCCS(=O)(=O)O)O[C@@H]6COCCCCS(=O)(=O)O)O[C@@H]5COCCCCS(=O)(=O)O)O[C@@H]4COCCCCS(=O)(=O)O)O[C@@H]3COCCCCS(=O)(=O)O [Captisol (SBE-Œ≤-CD)]", "experimentalTarget": "HEPG2", "className": "Condition met"}
{"compound": "CCc1nc2c(C)cc(N3CCN(CC(=O)N4CC(O)C4)CC3)cn2c1N(C)c1nc(-c2ccc(F)cc2)c(C#N)s1", "experimentalTarget": "HEPG2", "className": "Condition met"}
{"compound": "CC1=C(C(=O)OCCN(Cc2ccccc2)c2ccccc2)C(c2cccc([N+](=O)[O-])c2)C(P2(=O)OCC(C)(C)CO2)=C(C)N1 (stereo not given)", "experimentalTarget": "HEPG2", "className": "Condition not met"}
{"compound": "CC(=O)OCC(CCn1cnc2cnc(N)nc21)COC(C)=O", "experimentalTarget": "HEPG2", "className": "Condition not met"}
